target: MurX (Mycobacterium tuberculosis); assay: biochemical; assay type: biochemical, M. tuberculosis
Sequence (P9WMW7 whole entry): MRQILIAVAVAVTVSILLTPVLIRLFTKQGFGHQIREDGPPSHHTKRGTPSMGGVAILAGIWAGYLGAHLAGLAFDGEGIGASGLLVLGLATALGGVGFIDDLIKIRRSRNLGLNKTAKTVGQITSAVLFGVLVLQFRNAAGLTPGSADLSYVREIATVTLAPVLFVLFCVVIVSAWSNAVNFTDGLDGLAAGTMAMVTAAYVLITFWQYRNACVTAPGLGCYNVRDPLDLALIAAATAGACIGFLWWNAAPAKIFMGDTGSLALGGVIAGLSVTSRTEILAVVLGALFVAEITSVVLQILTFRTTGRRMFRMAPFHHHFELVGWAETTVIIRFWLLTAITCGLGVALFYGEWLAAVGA
Endpoint: IC50 (nM)
Express the result in nM but write the number alone.

Measured IC50, CO[C@H]1[C@@H](O)[C@H](n2ccc(=O)[nH]c2=O)O[C@@H]1[C@@H](O[C@H]1OC(C(=O)N[C@H]2CCCCNC2=O)=C[C@H](O)[C@@H]1O)C(N)=O [Capuramycin] : 220
